Molecular target: GTPase HRas (Homo sapiens)
Sequence (P01112 whole entry): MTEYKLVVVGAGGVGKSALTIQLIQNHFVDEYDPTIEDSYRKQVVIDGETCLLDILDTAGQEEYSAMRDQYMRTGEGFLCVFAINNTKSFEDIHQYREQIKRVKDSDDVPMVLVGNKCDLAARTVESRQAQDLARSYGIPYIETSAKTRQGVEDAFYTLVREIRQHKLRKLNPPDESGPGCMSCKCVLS
Assay Readout: Ki (nM)
// units = nM; emit number, no label

input: Request the reported Ki associated with N#Cc1ccc(Cn2cncc2CN2CCN(c3cccc(Cl)c3)C(=O)C2)cc1 [L-778123 FREE BASE]
output: 1.6

----------
Test system: MIA PaCa-2
Assay: Cytotoxicity against human MIA PaCa-2 cells harboring KRAS G12C mutant assessed as reduction in cell viability measured after 48 hrs by MTT assay
Assay type: functional, cell-based
Settings: MIA PaCa-2, 48 h
Assay Readout: pIC50
In textbook form, pIC50 equals minus log to base ten of the concentration in mol/L.

input: Name the reported pIC50 value associated with the compound CCCc1c(OCCCCCOc2coc(CO)cc2=O)ccc(Cl)c1Cl
output: 4.99

----------
Assay: Antiproliferative activity against human Hs578Bst cells harboring HRAS mutant incubated for 48 hrs by MTT assay
Assay type: functional, cell-based
Assay Readout: pIC50
// pIC50 here means minus log10 of the molar concentration (mol/L)

input: Please look up its pIC50: COC(=O)[C@H](CCSC)NC(=O)c1ccc(NC[C@H](N)CS)cc1-c1ccccc1
output: 4.83

----------
Target: GTPase NRas (Homo sapiens)
Sequence (P01111 whole entry): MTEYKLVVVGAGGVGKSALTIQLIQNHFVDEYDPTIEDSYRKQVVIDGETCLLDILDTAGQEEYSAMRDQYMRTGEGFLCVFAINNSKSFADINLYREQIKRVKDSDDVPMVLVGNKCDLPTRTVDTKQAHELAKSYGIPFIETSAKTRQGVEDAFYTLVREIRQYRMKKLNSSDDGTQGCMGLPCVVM
Assay Readout: pKi
Bear in mind: pKi is minus log10 of a mol/L concentration; give just that figure.

input: Under GTPase NRas (Homo sapiens): pKi value of N#Cc1ccc(Cn2cncc2CN2CCN(c3cccc(Cl)c3)C(=O)C2)cc1 [L-778123 FREE BASE] ?
output: 9.52

----------
Assay: AUC in cynomolgus monkey
Assay type: ADME, Macaca fascicularis
Details: in vivo
Assay Readout: AUC (µg·h/mL)
Give the value in µg·h/mL but do not write µg·h/mL after it.

input: Would you kindly share the measured AUC for NC(=O)N1CCC(CC(=O)N2CCC([C@H]3c4ncc(Br)cc4CCc4cc(Cl)cc(Br)c43)CC2)CC1 ?
output: 14.7

----------
Assay: Antiproliferative activity against human cancer cell lines harboring KRAS mutation assessed as reduction in cell viability
Format: functional, cell-based
Assay Readout: pIC50
Reminder that pIC50 is minus the log10 of a molar concentration.

input: // returns reported pIC50 for input N#Cc1ccc(Cn2cncc2CN2CCN(c3cccc(Cl)c3)C(=O)C2)cc1 [L-778123 FREE BASE]
output: 5.64

----------
Assay: Binding affinity to recombinant human KRAS (1 to 169 residues) expressed in Escherichia coli - recombinant human SOS1 (560 to 1049 residues) expressed in Escherichia coli assessed as dissociation constant
Assay Readout: Kd (nM)
Enter your answer as a number in nM; do not include the unit.

input: Field request: Kd | item: CNCc1ccccc1-c1csc([C@@H](C)Nc2nc(C)nc3cc(OC)c(OC)cc23)c1 [BAY-293]
output: 36

----------
Reported Kd, GTPase KRas (Homo sapiens).
Provide only the numeric value, understood in µM.

input: Give Kd (GTPase KRas (Homo sapiens)) of the following compound: c1ccc2[nH]cnc2c1 [BENZIMIDAZOLE]
output: 1500

Consider the additional compound presented here.
input: # get_value(readout= Kd, system= GTPase KRas (Homo sapiens)) for Cc1[nH]c2cc(Cl)cc(Cl)c2c1CCN
output: 1100

----------
Molecular target: Protein farnesyltransferase subunit beta (Homo sapiens)
Sequence (P49356 whole entry): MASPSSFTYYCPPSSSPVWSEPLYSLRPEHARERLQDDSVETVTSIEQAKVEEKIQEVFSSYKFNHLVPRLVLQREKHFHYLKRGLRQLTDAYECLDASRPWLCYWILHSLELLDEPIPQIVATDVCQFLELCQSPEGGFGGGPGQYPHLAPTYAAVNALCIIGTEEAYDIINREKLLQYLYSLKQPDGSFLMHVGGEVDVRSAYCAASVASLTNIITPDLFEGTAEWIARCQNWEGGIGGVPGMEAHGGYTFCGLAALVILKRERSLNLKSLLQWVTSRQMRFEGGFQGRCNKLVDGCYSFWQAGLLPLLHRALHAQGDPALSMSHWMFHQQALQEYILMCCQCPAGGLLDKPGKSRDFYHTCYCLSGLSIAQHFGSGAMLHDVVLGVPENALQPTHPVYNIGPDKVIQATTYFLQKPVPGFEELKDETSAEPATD
Assay: Displacement of M [3H] farnesyl diphosphate from human PFTase expressed in Escherichia coli
Assay Readout: IC50 (nM)
Unit nM implied. Number only.

input: So what's the measured IC50 for this one? CC[C@@H](C)[C@@H](CO[C@@H](Cc1ccccc1)C(=O)CC(CCS(C)(=O)=O)C(=O)O)NC[C@@H](N)CS (stereo partly specified)
output: 1.8
